System: A673/TR/shEF
TEST_DESCRIPTION: cell viability (LOESS-normalised, relative to median of negative controls) (log2 ratio); higher = more viable cells (less compound effect), active = hit call of the paper (over 3 MAD below the median)
EXPERIMENTAL_CONTEXT: 0.103 µM; library screen: screen3; EWS-FLI1 expression: high (no doxycycline); treatment time: 72 h
Hit rate of the full screen: of about 3,200 compounds, about 300 (9.4%) showed activity. Many of the other results were omitted from the sample, so actives are more common in it than they were.
MEASURED_METRIC: cell viability (log2)
Quick one: just the number, no unit, thanks!

COMPOUND	cell viability (log2)
CCc1c2c(nc3ccc(OC(=O)N4CCC(N5CCCCC5)CC4)cc13)-c1cc3c(c(=O)n1C2)COC(=O)[C@]3(O)CC	0.00275
OCC1OC(O)C(O)C(O)C1O (stereo not given)	0.00138
COc1c(O)cc(C2Oc3c(c(O)cc(O)c3[C@H]3c4c(O)cc(O)cc4O[C@H](c4ccc(O)cc4)[C@@H]3O)C[C@H]2O)cc1O (stereo not given in full)	-0.000188
CCC(C)[C@H]1O[C@]2(CC[C@@H]1C)CC1C[C@@H](C/C=C(\C)[C@@H](O[C@H]3C[C@H](OC)[C@@H](OC4C[C@H](OC)[C@@H](O)[C@H](C)O4)[C@H](C)O3)[C@@H](C)/C=C/C=C3\CO[C@@H]4[C@H](O)C(C)=C[C@@H](C(=O)O1)[C@]34O)O2.CO[C@H]1CC(O[C@H]2[C@H](C)O[C@@H](O[C@@H]3/C(C)=C/C[C@@H]4CC(C[C@]5(CC[C@H](C)[C@@H](C(C)C)O5)O4)OC(=O)[C@@H]4C=C(C)[C@@H](O)[C@H]5OC/C(=C\C=C\[C@@H]3C)[C@]54O)C[C@@H]2OC)O[C@@H](C)[C@@H]1O (stereo not given in full)	0.062
CC1CC2C3CCC4=CC(=O)C=CC4(C)C3C(=O)CC2(C)[C@@]1(O)C(=O)CO (stereo not given in full)	0.145

Task: What cell viability (log2) value was documented for this compound, O=C1NC(=O)C(c2ccccc2)(c2ccccc2)N1 ?
Output: 0.0587

Task: What cell viability (log2) value was documented for this compound, CCC1(c2ccccc2)C(=O)NCNC1=O ?
Output: 0.0813

Task: What cell viability (log2) value was documented for this compound, C/C(=C\C(=O)Nc1ccccc1C(=O)O)c1ccc2ccccc2c1 ?
Output: 0.0459

Task: What cell viability (log2) value was documented for this compound, COC(=O)Nc1ccc(-c2nc(N3CCOCC3)c3cnn(C4CCN(C(=O)OC)CC4)c3n2)cc1 ?
Output: -0.0923

Task: What cell viability (log2) value was documented for this compound, COc1cc([C@@H]2c3cc4c(cc3[C@@H](O[C@@H]3O[C@@H]5CO[C@@H](C)O[C@H]5[C@H](O)[C@H]3O)[C@H]3COC(=O)[C@H]23)OCO4)cc(OC)c1O ?
Output: 0.16

* * *

Test system: A673/TR/shEF
TEST_DESCRIPTION: cell viability (LOESS-normalised, relative to median of negative controls) (log2 ratio); higher = more viable cells (less compound effect), active = hit call of the paper (over 3 MAD below the median)
EXPERIMENTAL_CONTEXT: 0.926 µM; library screen: screen3; EWS-FLI1 expression: high (no doxycycline); treatment time: 72 h
Hit rate of the full screen: of about 3,200 compounds, about 300 (9.4%) showed activity. This is one part of a sample in which actives are shown more often than they occur.
Give one outcome, nothing more. List: 1 (yes) for active, 0 (no) for inactive

Below, 4 molecules whose answers are already recorded.
SUBSTANCE_SMILES	TARGET_UNDER_TEST	ANSWER_LABEL
CO[C@@H](C(=O)N1Cc2[nH]nc(NC(=O)c3ccc(N4CCN(C)CC4)cc3)c2C1)c1ccccc1	A673/TR/shEF	1 (yes)
CCOc1cc2ncc(C#N)c(Nc3ccc(OCc4ccccn4)c(Cl)c3)c2cc1NC(=O)/C=C/CN(C)C	A673/TR/shEF	0 (no)
O=c1[nH]cc(F)c(=O)[nH]1	A673/TR/shEF	0 (no)
FC(F)(F)c1ccc(/C=C/c2nc(COc3ccc(CCCCn4ccnn4)cc3)co2)cc1	A673/TR/shEF	1 (yes)

Task: // param item: CCOc1cc2ncc(C#N)c(Nc3ccc(F)c(Cl)c3)c2cc1NC(=O)/C=C/CN(C)C ; yields the recorded call
Output: 0 (no)
